Exercise: state measured growth inhibition for each of the molecules provided.
Experiment: NCI Yeast Anticancer Drug Screen. Data for the sgs1 mgt1 strain (AID 161);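 note: 0% = growth of cultures given vehicle only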
Conditions: S. cerevisiae sgs1 mgt1 strain, at 50.0 µM, hits give high values
Experimental: Growth inhibition of yeast strains with defined genetic alterations is measured as a screen for potential anti-cancer activity. Selected strains with alterations in DNA damage repair or cell cycle control were exposed to compounds and growth inhibition was measured relative to vehicle treated controls. The strain used in this assay is sgs1 mgt1
The panel holds about 79,000 compounds, 15% with a hit somewhere; the sample as a whole holds those more often.
One number for each entry, in %.

As a guide, the following entries are already answered.
- MOLECULE: "C=C(C)C(O)CC(C)C (stereo not drawn)"
  READOUT_UNITS: "%"
  MEAS_VALUE: -15.2
- MOLECULE: "CCCCCCCCCCCCCCCCOc1ccc(C(=O)O)cc1"
  READOUT_UNITS: "%"
  MEAS_VALUE: 5.3
- MOLECULE: "CC(C)([NH-])C[NH-].O=C(O)CCO.[Pt+2]"
  READOUT_UNITS: "%"
  MEAS_VALUE: -2.8
- MOLECULE: "O=C([O-])C(=O)[N-]CCC[N-]C(=O)C(=O)[N-]CCC[N-]C(=O)C(=O)[O-].[Cu+2].[Cu+2].[Na+]"
  READOUT_UNITS: "%"
  MEAS_VALUE: 4.35
- MOLECULE: "CC(C)CCCC(C)C1CCC2C3CC=C4CC(OC(=O)Nc5ccc(S(=O)(=O)N6CCCCC6)cc5)CCC4(C)C3CCC12C (stereo not drawn)"
  READOUT_UNITS: "%"
  MEAS_VALUE: 1.65
- MOLECULE: "CN(C)S(=O)(=O)C(C(=O)Nc1ccccc1)c1ccccc1 (stereo not drawn)"
  READOUT_UNITS: "%"
  MEAS_VALUE: 3
- MOLECULE: "NC(CCCCNC(=O)OCc1ccccc1)C(=O)OCc1ccccc1 (stereo not drawn)"
  READOUT_UNITS: "%"
  MEAS_VALUE: -9.7
- MOLECULE: "O=C1c2ccccc2C2NCCCN12 (stereo not drawn)"
  READOUT_UNITS: "%"
  MEAS_VALUE: -0.4

Provide the reported growth inhibition of each entry below, same order.
1. Cc1c([N+](=O)[O-])cc(C(C)C)c(O)c1[N+](=O)[O-]
2. CC(C)c1ccc2c(c1)CCC1C2(C)CCCC1(C)C(O)c1ccccc1 (stereo not drawn)
3. CC(C)CCCC(C)C1CCC2C3CC=C4CC(C(=O)O)CCC4C3CCC12C (stereo not drawn)
4. Cc1ncc(N)nc1C
5. COc1ccc(/C=C/C2=CC(=O)CC(c3ccc(OC)c(OC)c3)C2)cc1OC (stereo not drawn)
6. CC1(C)N=C(C(N)=O)c2[nH]cnc2N1

1: 27.9; 2: 8.6; 3: 14.1; 4: -26.5; 5: 16.5; 6: 12.8

I have 3 molecules here; please give me growth inhibition for each one.
1. Cc1cccc(NC(=O)OCCOC(=O)Nc2cccc(C)n2)n1
2. CC(=O)Nc1ccc(S(=O)(=O)Nc2cccc3ccccc23)cc1
3. CCCCCCCCC(Cl)C(Cl)CCCCCCCC(=O)OC (stereo not drawn)

1: -19.4; 2: 18.6; 3: -20.3

Please supply growth inhibition for each of the following items, keeping them in order.
1. Cc1cc(=O)oc2nc(-c3ccccc3)[nH]c(=O)c12
2. CCSC1=C(C)N(C=NC(C)(C)C)CC1

1. 3.2
2. -38

Batch: growth inhibition for all items listed.
1. CC(=O)NC(CCCN(Cc1ccccc1)C(=O)NCCCl)C(=O)NCc1ccccc1 (stereo not drawn)
2. O=c1c(SCc2ccccc2)c(N2CCOCC2)cnn1-c1ccccc1
3. c1ccc(-c2nc3ccccc3n2CCc2ccncc2)nc1
4. COc1cccc(C(=O)c2ccncc2)c1OC

[4.5, 22.8, 14, -5.6]

// for each molecule in input: emit growth inhibition
1. CCC1=C(C)/C(=C/c2[nH]c(C)cc2C)N=C1C
2. CCC(=O)C1(N2CCOCC2)CCN(CCCC(=O)c2ccc(F)cc2)CC1
3. O=C1CSC(c2ccccc2F)N1c1ncccn1 (stereo not drawn)
4. CC1CCCN(N=Nc2ccc(Br)cc2-c2nc(N)c3cc(Br)ccc3n2)C1 (stereo not drawn)
5. O=[N+]([O-])c1cc(Br)ccc1N1CCCC1
6. O=c1nc(Oc2ccccc2)nc2ccc(Cl)nn12
7. COc1cc(C(SCc2ccccc2)SCc2ccccc2)ccc1O
8. OCCNCN(CNCCO)c1nc(N(CNCCO)CNCCO)nc(N(CNCCO)CNCCO)n1

[3.65, -1.75, 0.75, 99.5, 4.05, 6.95, 30.9, 32.6]

Give measured growth inhibition for every item shown.
1. C=CC1C(C(=O)Nc2ccccc2)CN1C (stereo not drawn)
2. CCOC(=O)/C=C/CC1CCNC1 (stereo not drawn)
3. CCN(CC)CCN(C)c1ccccc1
4. NC(=O)COc1ncc(Cl)cc1Cl
5. CCN(CC)/N=C\c1c2ccccc2cc2ccccc12

[-4.15, -13.4, -2.05, 3.15, 7.7]

For every record below, what is its growth inhibition?
1. CC1C(O)CC23COC(=O)C2=CCCC3C1(C)CCC1=CC(=O)OC1 (stereo not drawn)
2. O=C(Nc1ccc(Cl)cc1[N+](=O)[O-])Oc1ccc(-c2ccccc2)cc1Cl
3. Nc1ccc(-c2csc(Nc3ccnc4cc(Cl)ccc34)n2)cc1
4. COC(=O)C1C(=O)CC(C)(O)C(C(=O)OC)C1c1ccc(N(C)C)cc1 (stereo not drawn)
5. CCOC(=O)c1ccc(NC(=O)Nc2ccc(OC)c([N+](=O)[O-])c2)cc1
6. Cn1ncc2c(Nc3cc(Cl)ccc3Cl)ncnc21
7. C=C(C)C(=O)OC1CC2(C)OC2CC(OC(C)=O)/C(C)=C/C2OC(=O)C(=C)C21 (stereo not drawn)
8. Br

-26.2
99.7
4.25
7.7
12.5
4.35
31.7
-54.9

Dear colleague, could you send me growth inhibition for each of the items below? Thanks.
1. CC(=O)C1=CCC2[C@H]3CC=C4C[C@H](O)CC[C@@]4(C)C3CC[C@@]12C (stereo partly drawn)
2. Cc1cc(NCCN(C(C)C)C(C)C)nc(Nc2nc3cc(Cl)c(Cl)cc3[nH]2)n1
3. CN(C)CCN(CCN(C)C)CCN(C)C
4. CN(N)c1nc2c(N)ncnc2n1C1OC(CO)C(O)C1O (stereo not drawn)

1: 49.8; 2: 77.8; 3: 12.3; 4: 30.6

----------
Field: growth inhibition. Provide a value for each of the compounds that follow.
Assay: NCI Yeast Anticancer Drug Screen. Data for the mec2-1 strain (AID 157)
Conditions: S. cerevisiae mec2-1 strain, at 50.0 µM, hits give high values
Compounds without any hit were thinned out: in the full panel of roughly 79,000, 15% have a hit.
Give bare numbers, in %.

- COMPOUND: "Cc1cc(OCCOC(=O)Nc2ccccc2C(F)(F)F)cc(C)c1Cl"
  READOUT_UNITS: "%"
  growth inhibition: -5.2

Each of the following entries comes with a recorded value; kindly state growth inhibition for each.
1. CC(=O)C1=CCC(C(C)C)C1 (configuration not stated)
2. Clc1ccc(CNc2nc3ccccc3nc2-c2cccs2)c(Cl)c1

1. -0.9
2. 16.8

The following compounds each have a reported value; give each one's growth inhibition.
1. CCCC(CC)=C(c1ccc(OC(C)=O)cc1)c1ccc(OC(C)=O)cc1
2. OC(CBr)c1cc(-c2ccc(Cl)cc2)nc2c(-c3ccccc3)cccc12 (configuration not stated)
3. COC1=CC(=O)O/C1=C(\OC)C1OC1c1ccccc1 (configuration not stated)

[24.3, 3.85, -7.25]

----------
Assay: NCI Yeast Anticancer Drug Screen. Data for the cln2 rad14 strain (AID 165);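 note: 0% = growth equal to vehicle treated cultures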
Details: S. cerevisiae cln2 rad14 strain, at 50.0 µM, hits give high values
About 79,000 compounds went through this panel and 15% of them were active in at least one assay; those are over-represented in the sample as a whole.
RECORDED_ENDPOINT: growth inhibition (%)
Numbers only, in %.

// solved cases for growth inhibition follow
- COMPOUND: "C[P+]1(CCc2ccc(Cl)cc2)CC=CC1"
  growth inhibition (%): -18.9
- COMPOUND: "C=C(C)c1ccc(B2Nc3ccccc3N2)cc1"
  growth inhibition (%): 18.8
- COMPOUND: "Nc1nc(N)nc(-c2ccccc2N)n1"
  growth inhibition (%): -45
- COMPOUND: "CCN(CC)c1cc2oc(=O)cc(C)c2cc1NC(=O)c1cc([N+](=O)[O-])cc([N+](=O)[O-])c1"
  growth inhibition (%): -0.4
- COMPOUND: "O=C1CC(c2ccc(Cl)cc2)C(=O)O1 (stereo not given)"
  growth inhibition (%): 3.2
- COMPOUND: "Cc1ccc(S(=O)(=O)N/N=C/c2oc(-c3ccccc3Cl)c(-c3ccccc3Cl)c2[N+](=O)[O-])cc1"
  growth inhibition (%): 38.4

Each compound below has a recorded value; state its growth inhibition.
1. CC(NC(=O)Nc1ccccc1Cl)c1ccccc1 (stereo not given)
2. CC(O)C1(O)C(O)CC(OC2c3cc4c(c(O)c3[C@@H]3C[C@@]2(C)OC32C=c3cc[nH]c3=N2)C(=O)c2cccc(O)c2C4=O)OC1C (stereo not given in full)
3. COc1nc(NC2OCC(O)C(O)C2O)c(Br)c(=O)n1C (stereo not given)
4. CC(/C=N\Nc1ccc([N+](=O)[O-])cc1)=N/N=C(N)N

1: -10.8; 2: 50.4; 3: 11.8; 4: -10.9
